test: Beagle dog absorption test (pharmacokinetics); assay type: in vivo, Beagle dogs; conditions: both sexes, dog, plasma; male and female Beagle dogs, oral, 1 mg/kg once a day, day 7
MEASURED ATTRIBUTE: Cmax at 7 days
Answer format: value, then unit.

Can you look up the measured Cmax at 7 days of CNC(=O)[C@H](C)Cn1cnc2ccc(-c3cnc(OC)c(NS(=O)(=O)c4ccc(F)cc4F)c3)cc2c1=O for me? 850 nM

* * *

assay: Sprague Dawley (SD) rat absorption test (pharmacokinetics); assay type: in vivo, SD rats; details: Sprague-Dawley, rat, plasma; female SD rats, oral, 10 mg/kg, Day 1
MEASURED ATTRIBUTE: Tmax (min)
Answers are plain numbers, in min.

Can you look up the measured Tmax of CNC(=O)[C@H](C)Cn1cnc2ccc(-c3cnc(OC)c(NS(=O)(=O)c4ccc(F)cc4F)c3)cc2c1=O for me? 40

* * *

experiment: Sprague Dawley (SD) rat absorption test (pharmacokinetics); format: in vivo, SD rats; settings: male, Sprague-Dawley, rat, plasma, iv, 1 mg/kg, male SD rats, vein, single
MEASURED ATTRIBUTE: half-life (h)
One number for each entry, in h.

Can you look up the measured half-life of CNC(=O)[C@H](C)Cn1cnc2ccc(-c3cnc(OC)c(NS(=O)(=O)c4ccc(F)cc4F)c3)cc2c1=O for me? 3.26

* * *

target: PI3Kα (Homo sapiens); construct: purchased Millipore 14-602-K; assay: In vitro enzymatic activity test (ADP-Glo lipid kinase), PI3Kα wild type; type: biochemical; details: wild-type PI3Kα kinase; read-out: Wild type PI3Kα IC50
Sequence (P42336 whole entry): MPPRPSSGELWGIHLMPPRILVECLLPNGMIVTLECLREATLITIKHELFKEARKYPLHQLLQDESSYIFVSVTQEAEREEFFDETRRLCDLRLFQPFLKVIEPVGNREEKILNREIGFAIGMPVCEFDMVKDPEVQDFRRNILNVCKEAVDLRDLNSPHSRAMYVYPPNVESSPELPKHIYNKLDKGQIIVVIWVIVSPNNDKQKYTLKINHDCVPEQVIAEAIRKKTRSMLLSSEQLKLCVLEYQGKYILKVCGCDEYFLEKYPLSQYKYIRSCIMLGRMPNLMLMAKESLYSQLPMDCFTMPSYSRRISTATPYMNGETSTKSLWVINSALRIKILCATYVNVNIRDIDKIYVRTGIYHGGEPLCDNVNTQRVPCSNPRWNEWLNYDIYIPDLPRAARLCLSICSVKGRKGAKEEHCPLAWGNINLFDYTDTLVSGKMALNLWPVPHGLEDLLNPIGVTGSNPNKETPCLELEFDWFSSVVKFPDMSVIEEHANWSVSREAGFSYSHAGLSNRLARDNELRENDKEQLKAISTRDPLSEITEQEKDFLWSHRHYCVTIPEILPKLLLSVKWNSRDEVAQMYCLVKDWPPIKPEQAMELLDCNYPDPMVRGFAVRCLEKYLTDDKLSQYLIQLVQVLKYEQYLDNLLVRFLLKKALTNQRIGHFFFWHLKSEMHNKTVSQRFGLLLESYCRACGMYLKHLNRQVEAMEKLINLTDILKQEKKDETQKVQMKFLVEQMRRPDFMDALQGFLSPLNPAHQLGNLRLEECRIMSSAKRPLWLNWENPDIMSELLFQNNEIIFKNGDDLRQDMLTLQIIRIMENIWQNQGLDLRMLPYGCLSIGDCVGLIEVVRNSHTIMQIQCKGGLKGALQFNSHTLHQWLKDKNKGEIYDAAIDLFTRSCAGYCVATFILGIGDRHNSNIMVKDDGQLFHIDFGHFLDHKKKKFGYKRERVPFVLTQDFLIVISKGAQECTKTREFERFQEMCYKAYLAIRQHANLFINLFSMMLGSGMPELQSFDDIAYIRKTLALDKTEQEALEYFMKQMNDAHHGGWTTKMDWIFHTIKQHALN
Sequence (P27986 whole entry partner): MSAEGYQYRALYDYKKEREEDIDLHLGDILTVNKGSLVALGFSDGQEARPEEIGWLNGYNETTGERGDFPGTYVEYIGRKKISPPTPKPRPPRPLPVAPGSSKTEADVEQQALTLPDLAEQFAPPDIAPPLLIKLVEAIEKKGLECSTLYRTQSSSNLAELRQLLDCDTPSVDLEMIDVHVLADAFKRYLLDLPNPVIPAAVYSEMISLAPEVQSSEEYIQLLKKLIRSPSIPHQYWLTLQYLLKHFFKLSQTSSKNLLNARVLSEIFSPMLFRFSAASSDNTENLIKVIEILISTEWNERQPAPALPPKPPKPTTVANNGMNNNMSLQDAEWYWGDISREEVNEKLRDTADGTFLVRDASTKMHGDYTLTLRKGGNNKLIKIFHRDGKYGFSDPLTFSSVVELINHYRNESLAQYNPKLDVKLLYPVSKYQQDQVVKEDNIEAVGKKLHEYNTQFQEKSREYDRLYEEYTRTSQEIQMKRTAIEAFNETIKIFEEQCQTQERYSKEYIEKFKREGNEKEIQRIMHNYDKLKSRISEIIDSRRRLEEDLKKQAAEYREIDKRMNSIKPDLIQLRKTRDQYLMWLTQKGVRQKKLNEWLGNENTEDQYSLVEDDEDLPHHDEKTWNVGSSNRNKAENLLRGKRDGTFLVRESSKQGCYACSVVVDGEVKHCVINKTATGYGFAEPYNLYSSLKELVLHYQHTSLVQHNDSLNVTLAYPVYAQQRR
MEASURED ATTRIBUTE: IC50 (nM)
Numbers only, in nM.

Can you look up the measured IC50 of CNC(=O)[C@H](C)Cn1cnc2ccc(-c3cnc(OC)c(NS(=O)(=O)c4ccc(F)cc4F)c3)cc2c1=O for me? 1.8

* * *

experiment: Sprague Dawley (SD) rat absorption test (pharmacokinetics); assay type: in vivo, SD rats; conditions: female, Sprague-Dawley, rat, plasma, po, 10 mg/kg, female SD rats, oral, 10 mg/kg once a day, Day 7
MEASURED ATTRIBUTE: Cmax (µM)
Numbers only, in µM.

Can you look up the measured Cmax of CNC(=O)[C@H](C)Cn1cnc2ccc(-c3cnc(OC)c(NS(=O)(=O)c4ccc(F)cc4F)c3)cc2c1=O for me? 20.5

* * *

test: Sprague Dawley (SD) rat absorption test (pharmacokinetics); format: in vivo, SD rats; settings: female, Sprague-Dawley, rat, plasma, po, 10 mg/kg, female SD rats, oral, 10 mg/kg once a day, Day 7
MEASURED ATTRIBUTE: AUC(0-t) (µM·h)
Give bare numbers, in µM·h.

Can you look up the measured AUC(0-t) of CNC(=O)[C@H](C)Cn1cnc2ccc(-c3cnc(OC)c(NS(=O)(=O)c4ccc(F)cc4F)c3)cc2c1=O for me? 86

* * *

Experiment: Sprague Dawley (SD) rat absorption test (pharmacokinetics)
Type: in vivo, SD rats
Conditions: Sprague-Dawley, rat, plasma; male SD rats, oral, 3 mg/kg, single
Procedure: SD rats were given the crystal form A of the compound represented by formula (I) by single or multiple oral gavage and single intravenous injection respectively, with 6 rats in each group, half male and half female. […] According to the drug plasma concentration-time curve, the pharmacokinetic parameters were calculated. […]
MEASURED ATTRIBUTE: Tmax (min)
Numbers only, in min.

Can you look up the measured Tmax of CNC(=O)[C@H](C)Cn1cnc2ccc(-c3cnc(OC)c(NS(=O)(=O)c4ccc(F)cc4F)c3)cc2c1=O for me? 25
